Parameter Post-emergence action against ORYSA (crop plant compatibility): see the listing below.
test system: Oryza sativa (ORYSA); experiment: Post-emergence crop plant compatibility, greenhouse pot test (also comparative test C); type: in vivo; conditions: 1.25 g/ha, vs untreated controls
measurement.kind: Post-emergence action against ORYSA (crop plant compatibility) (%)

| compound | endpoint.result |
| --- | --- |
| Cn1c(C(F)(F)F)cc(=O)n(-c2cc(Oc3ccccc3OCC(=O)OCC[N+](=O)[O-])c(Cl)cc2F)c1=O | 0 |
| Cn1c(C(F)(F)F)cc(=O)n(-c2cc(Oc3ccccc3OCC(=O)OCc3cccnn3)c(C#N)cc2F)c1=O | 0 |
| COCC(C)OC(=O)COc1ccccc1Oc1cc(-n2c(=O)cc(C(F)(F)F)n(C)c2=O)c(F)cc1Cl (stereo not drawn) | 0 |
| COCCOC(=O)C(C)Oc1ccccc1Sc1cc(-n2c(=O)cc(C(F)(F)F)n(C)c2=O)c(F)cc1Cl (racemic) | 10 |
| COCCOC(=O)COc1ccccc1Oc1cc(-n2c(=O)cc(C(F)(F)F)n(C)c2=O)c(F)cc1C#N | 0 |
| Cn1c(C(F)(F)F)cc(=O)n(-c2cc(Oc3cc(F)ccc3OCC(=O)OCC#N)c(Cl)cc2F)c1=O | 0 |
| Cn1c(C(F)(F)F)cc(=O)n(-c2cc(Oc3cc(F)ccc3OCC(=O)OCc3ccccn3)c(Cl)cc2F)c1=O | 0 |
| Cn1c(C(F)(F)F)cc(=O)n(-c2cc(Oc3ccccc3OCC(=O)OCc3ccccn3)c(Cl)cc2F)c1=O | 0 |
| Cn1c(C(F)(F)F)cc(=O)n(-c2cc(Oc3ccccc3OCC(=O)OCc3ccncc3)c(Cl)cc2F)c1=O | 0 |
| Cn1c(C(F)(F)F)cc(=O)n(-c2cc(Sc3ccccc3OCC(=O)OCC3CCOC3)c(Cl)cc2F)c1=O (racemic) | 10 |
| Cn1c(C(F)(F)F)cc(=O)n(-c2cc(Oc3ccccc3OCC(=O)OCc3cccnn3)c(Br)cc2F)c1=O | 0 |
| COCCOCCOC(=O)COc1cccc(F)c1Oc1cc(-n2c(=O)cc(C(F)(F)F)n(C)c2=O)c(F)cc1Cl | 10 |
| Cn1c(C(F)(F)F)cc(=O)n(-c2cc(Oc3ccccc3OCC(=O)OCC[N+](=O)[O-])c([N+](=O)[O-])cc2F)c1=O | 0 |
| Cn1c(C(F)(F)F)cc(=O)n(-c2cc(Oc3ccccc3OCC(=O)OCc3cccnn3)c(Cl)cc2F)c1=O | 20 |
| CCOCCOC(=O)COc1ccccc1Oc1cc(-n2c(=O)cc(C(F)(F)F)n(C)c2=O)c(F)cc1C#N | 0 |

----------
system: Oryza sativa (ORYSA); experiment: Post-emergence crop plant compatibility, greenhouse pot test (also comparative test C); format: in vivo; conditions: 1.25 g/ha, vs untreated controls
Parameter Post-emergence action against ORYSA (crop plant compatibility): see the listing below.
measurement.kind: Post-emergence action against ORYSA (crop plant compatibility) (%)

| molecule | units | endpoint.result |
| --- | --- | --- |
| Cn1c(C(F)(F)F)cc(=O)n(-c2cc(Oc3ccccc3OCC(=O)OCc3ccccn3)c(C#N)cc2F)c1=O [I.9-276] | % | 0 |
| COCCOCCOC(=O)COc1ccccc1Oc1cc(-n2c(=O)cc(C(F)(F)F)n(C)c2=O)c(F)cc1Cl [I.7-23] | % | 10 |
| CC(Oc1ccccc1Sc1cc(-n2c(=O)cc(C(F)(F)F)n(C)c2=O)c(F)cc1Cl)C(=O)OCC1CCOC1 (mixture of isomers) [I.2-72] | % | 0 |
| Cn1c(C(F)(F)F)cc(=O)n(-c2cc(Oc3ccccc3OCC(=O)OCC3CCCO3)c(Cl)cc2F)c1=O (stereo not shown) [I.7-71] | % | 20 |
